# Tested on: PPARg:RXRa 90nM:30nM, anti-RXR (NR concentration 90 nM, RXRa partner concentration 30 nM)
# run description: PBM binding z-score (relative to random genomic background probes); higher = stronger binding; sequences stand for … in GC…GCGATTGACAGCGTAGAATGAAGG
# PBM binding z-score per record follows
In your answer, state the number alone without any accompanying words.

stdin: Name the recorded PBM binding z-score of the item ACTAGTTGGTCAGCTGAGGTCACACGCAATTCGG in your answer.
stdout: 1.44

stdin: Name the recorded PBM binding z-score of the item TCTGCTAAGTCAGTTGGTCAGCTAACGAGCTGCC in your answer.
stdout: 0.712

stdin: Name the recorded PBM binding z-score of the item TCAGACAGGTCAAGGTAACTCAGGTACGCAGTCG in your answer.
stdout: 4.13

stdin: Name the recorded PBM binding z-score of the item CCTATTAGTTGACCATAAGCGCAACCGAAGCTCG in your answer.
stdout: 0.123

stdin: Name the recorded PBM binding z-score of the item CCTACCGGGCCAAAAAGGTCATTGATGCCGATAA in your answer.
stdout: 1.97

stdin: Name the recorded PBM binding z-score of the item ATATGTAGGTTAGCTGGGGTCTTTCAGACTAGGC in your answer.
stdout: 1.91

stdin: Name the recorded PBM binding z-score of the item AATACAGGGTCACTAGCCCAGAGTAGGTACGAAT in your answer.
stdout: 4.01

stdin: Name the recorded PBM binding z-score of the item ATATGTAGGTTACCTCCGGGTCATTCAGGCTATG in your answer.
stdout: 4.09

stdin: Name the recorded PBM binding z-score of the item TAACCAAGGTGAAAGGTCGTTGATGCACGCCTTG in your answer.
stdout: 8.96

stdin: Name the recorded PBM binding z-score of the item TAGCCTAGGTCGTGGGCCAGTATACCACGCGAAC in your answer.
stdout: -0.0658

###

# PBM binding z-score per record follows
# System: PPARg:RXRa 30nM:10nM, anti-RXR (NR concentration 30 nM, RXRa partner concentration 10 nM)
# run description: PBM binding z-score (relative to random genomic background probes); higher = stronger binding; sequences stand for … in GC…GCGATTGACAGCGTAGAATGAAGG
In your answer, state the number alone without any accompanying words.

Consider the following illustrative entries.
monomer sequence | target system | number
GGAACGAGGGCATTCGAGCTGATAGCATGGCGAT | PPARg:RXRa 30nM:10nM, anti-RXR (NR concentration 30 nM, RXRa partner concentration 10 nM) | -0.239
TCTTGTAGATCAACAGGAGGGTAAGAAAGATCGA | PPARg:RXRa 30nM:10nM, anti-RXR (NR concentration 30 nM, RXRa partner concentration 10 nM) | 2.25
CAGCCTAGGTCAGGGCTAGTATAGGAGGAACGTT | PPARg:RXRa 30nM:10nM, anti-RXR (NR concentration 30 nM, RXRa partner concentration 10 nM) | -0.0707
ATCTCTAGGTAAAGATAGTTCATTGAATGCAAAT | PPARg:RXRa 30nM:10nM, anti-RXR (NR concentration 30 nM, RXRa partner concentration 10 nM) | 0.293

Below: the item to evaluate.
stdin: Name the recorded PBM binding z-score of the item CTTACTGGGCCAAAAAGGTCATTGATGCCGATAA in your answer.
stdout: 2.89

###

# Tested on: RXRa homodimer (NR concentration 180 nM)
# run description: PBM binding z-score (relative to random genomic background probes); higher = stronger binding; sequences stand for … in GC…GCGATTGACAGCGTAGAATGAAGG
# PBM binding z-score per record follows

Consider the following illustrative entries.
monomer sequence | target system | PBM binding z-score
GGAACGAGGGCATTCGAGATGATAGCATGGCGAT | RXRa homodimer (NR concentration 180 nM) | 1.02
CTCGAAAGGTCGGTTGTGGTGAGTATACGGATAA | RXRa homodimer (NR concentration 180 nM) | 1.79
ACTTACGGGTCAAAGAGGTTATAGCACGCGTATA | RXRa homodimer (NR concentration 180 nM) | 6.31
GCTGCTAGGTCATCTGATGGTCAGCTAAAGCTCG | RXRa homodimer (NR concentration 180 nM) | 2.79
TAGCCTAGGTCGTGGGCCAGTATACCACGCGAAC | RXRa homodimer (NR concentration 180 nM) | 0.851

stdin: Name the recorded PBM binding z-score of the item TAGCCTAGGTCAGATCGGGCCAGTATTCGCTATA in your answer.
stdout: 1.37

stdin: Name the recorded PBM binding z-score of the item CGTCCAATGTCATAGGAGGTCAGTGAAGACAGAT in your answer.
stdout: 2.17

stdin: Name the recorded PBM binding z-score of the item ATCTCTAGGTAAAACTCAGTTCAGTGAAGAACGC in your answer.
stdout: 0.153

stdin: Name the recorded PBM binding z-score of the item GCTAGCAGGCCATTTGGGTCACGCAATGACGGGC in your answer.
stdout: 1.68

stdin: Name the recorded PBM binding z-score of the item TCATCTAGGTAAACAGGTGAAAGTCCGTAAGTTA in your answer.
stdout: 0.645

###

# Test system: VDR homodimer (NR concentration 270 nM)
# run description: PBM binding z-score (relative to random genomic background probes); higher = stronger binding; sequences stand for … in GC…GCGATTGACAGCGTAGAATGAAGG
Please enter Met where PBM binding z-score is greater than or equal to -0.04, and Not met where it is lower.

monomer sequence | cat
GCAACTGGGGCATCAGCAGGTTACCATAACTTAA | Not met

stdin: Is the recorded value of PBM binding z-score equal to or greater than -0.04 for this sequence? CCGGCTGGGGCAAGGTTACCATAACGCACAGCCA
stdout: Not met

stdin: Is the recorded value of PBM binding z-score equal to or greater than -0.04 for this sequence? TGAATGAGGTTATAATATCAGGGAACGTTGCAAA
stdout: Met

stdin: Is the recorded value of PBM binding z-score equal to or greater than -0.04 for this sequence? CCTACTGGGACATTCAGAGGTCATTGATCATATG
stdout: Met

stdin: Is the recorded value of PBM binding z-score equal to or greater than -0.04 for this sequence? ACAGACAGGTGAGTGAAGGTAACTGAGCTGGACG
stdout: Not met

###

# PBM binding z-score per record follows
# Tested on: PPARg:RXRa (NR concentration 180 nM, RXRa partner concentration 90 nM)
# run description: PBM binding z-score (relative to random genomic background probes); higher = stronger binding; sequences stand for … in GC…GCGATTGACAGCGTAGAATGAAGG
In your answer, state the number alone without any accompanying words.

monomer sequence | number
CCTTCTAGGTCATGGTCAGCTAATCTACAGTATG | 5.63
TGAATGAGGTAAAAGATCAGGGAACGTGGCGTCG | 3.68
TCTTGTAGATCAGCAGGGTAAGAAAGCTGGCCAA | -0.512

stdin: Specify the recorded PBM binding z-score for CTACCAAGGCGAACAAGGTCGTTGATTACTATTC , system: PPARg:RXRa (NR concentration 180 nM, RXRa partner concentration 90 nM).
stdout: 0.0767

stdin: Specify the recorded PBM binding z-score for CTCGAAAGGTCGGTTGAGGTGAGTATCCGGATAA , system: PPARg:RXRa (NR concentration 180 nM, RXRa partner concentration 90 nM).
stdout: 0.0243

stdin: Specify the recorded PBM binding z-score for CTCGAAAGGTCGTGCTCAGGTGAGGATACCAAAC , system: PPARg:RXRa (NR concentration 180 nM, RXRa partner concentration 90 nM).
stdout: 2.79

stdin: Specify the recorded PBM binding z-score for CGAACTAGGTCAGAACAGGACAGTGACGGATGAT , system: PPARg:RXRa (NR concentration 180 nM, RXRa partner concentration 90 nM).
stdout: 5.01

stdin: Specify the recorded PBM binding z-score for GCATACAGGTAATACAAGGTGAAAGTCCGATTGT , system: PPARg:RXRa (NR concentration 180 nM, RXRa partner concentration 90 nM).
stdout: 0.859

stdin: Specify the recorded PBM binding z-score for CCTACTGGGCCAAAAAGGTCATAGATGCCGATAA , system: PPARg:RXRa (NR concentration 180 nM, RXRa partner concentration 90 nM).
stdout: 3.89

stdin: Specify the recorded PBM binding z-score for ACTTACGGGTCAACGAGGTTATACCACGCGTATA , system: PPARg:RXRa (NR concentration 180 nM, RXRa partner concentration 90 nM).
stdout: 5.59

###

# Test system: LXRb homodimer (NR concentration 270 nM)
# run description: PBM binding z-score (relative to random genomic background probes); higher = stronger binding; sequences stand for … in GC…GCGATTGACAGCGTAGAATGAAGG
# PBM binding z-score per record follows
In your answer, state the number alone without any accompanying words.

Consider the following illustrative entries.
monomer sequence | PBM binding z-score
CCAACTGGGGCAGAAAGGTTACCATACCATCCGG | -0.79
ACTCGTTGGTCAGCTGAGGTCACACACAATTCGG | 0.51
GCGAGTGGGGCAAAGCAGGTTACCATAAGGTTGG | -0.338

stdin: Specify the recorded PBM binding z-score for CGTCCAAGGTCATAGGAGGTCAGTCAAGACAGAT , system: LXRb homodimer (NR concentration 270 nM).
stdout: 0.88

stdin: Specify the recorded PBM binding z-score for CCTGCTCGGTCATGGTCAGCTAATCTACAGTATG , system: LXRb homodimer (NR concentration 270 nM).
stdout: -0.00908

Source listed as the supplement of paper PMC6555819.
